Values from paper PMC8286831

Molecular target: SARS-CoV-2 nsp13 helicase (Severe acute respiratory syndrome coronavirus 2, UniProt P0DTD1)
Assay: biochemical
Format: biochemical
Settings: read-out: IC50 + 0.02% Tween-20
For each of the compounds below, state its IC50.
Give bare numbers, in µM.

COMPOUND	UNIT_OF_MEASUREMENT	IC50
CC(C)c1ccccc1Cc1cc(C(=O)Nc2ccc(S(=O)(=O)c3ccccc3C(C)(C)C)cc2)c(O)c(O)c1O [TW-37]	µM	109

Give IC50 for all compounds that follow.
1. Cc1cc(-c2ccc(N=Nc3c(S(=O)(=O)[O-])cc4cc(S(=O)(=O)[O-])cc(N)c4c3O)c(C)c2)ccc1N=Nc1c(S(=O)(=O)[O-])cc2cc(S(=O)(=O)[O-])cc(N)c2c1O.[Na+].[Na+].[Na+].[Na+] [Diphenyl Blue]
2. NC(=S)N/N=C/c1coc2ccccc2c1=O.[Cl][Cu][Cl] [FPA 124]
3. O=C(Nc1cccc(C(=O)Nc2ccc(S(=O)(=O)[O-])c3cc(S(=O)(=O)[O-])cc(S(=O)(=O)[O-])c23)c1)Nc1cccc(C(=O)Nc2ccc(S(=O)(=O)[O-])c3cc(S(=O)(=O)[O-])cc(S(=O)(=O)[O-])c23)c1.[Na+].[Na+].[Na+].[Na+].[Na+].[Na+] [NF 023]
4. C=CCn1c(CSc2ccccc2[N+](=O)[O-])n[nH]c1=S [SSYA10-001]
5. O=C1/C(=C/c2ccc(O)c(Br)c2)CN(Cc2ccccc2)C/C1=C\c1ccc(O)c(Br)c1 [CARM1-IN-1]
6. O=C1CC(=O)c2c(Cl)c(Cl)c(Cl)c(Cl)c21 [TCID]

4.7
8.4
0.92
28
126
24

// IC50 lookup, key: Cc1nc(N=Nc2cc(S(=O)(=O)[O-])c3cc([N+](=O)[O-])cc(S(=O)(=O)[O-])c3c2)c(COP(=O)([O-])[O-])c(C=O)c1O.[Na+].[Na+].[Na+].[Na+] [PPNDS]
1.6
